- Tested on: 817829-284-R-J1-PDC complex spheroid viability
- ASSAY_SUMMARY: Anticancer human tumor 817829-284-R-J1-PDC patient-derived colon adenocarcinoma cell line growth inhibition [POLQ]
- CONDITIONS_USED: curve of first compound; second compound 3.16 µM
EXPERIMENTAL_ENDPOINT: IC50

[[record]]
compound = "CC(=O)O[C@H]1C(=O)[C@@]2(C)[C@H]([C@H](OC(=O)c3ccccc3)[C@]3(O)C[C@H](OC(=O)[C@H](O)[C@@H](NC(=O)c4ccccc4)c4ccccc4)C(C)=C1C3(C)C)[C@]1(OC(C)=O)CO[C@@H]1C[C@@H]2O + COC1C(OC(N)=O)C(O)C(Oc2ccc3c(O)c(NC(=O)c4ccc(O)c(CC=C(C)C)c4)c(=O)oc3c2C)OC1(C)C"
readout_value = "< 9.49 nM"

[[record]]
compound = "CC1COCCN1c1cc(C2(O)CC3CCC(C2)O3)c2cnn(-c3ccn[nH]3)c2n1 (configuration not stated) + COC1C(OC(N)=O)C(O)C(Oc2ccc3c(O)c(NC(=O)c4ccc(O)c(CC=C(C)C)c4)c(=O)oc3c2C)OC1(C)C"
readout_value = "< 31.6 nM"


* * *

- Test system: 817829-284-R-J1-PDC complex spheroid viability
- ASSAY_SUMMARY: Anticancer human tumor 817829-284-R-J1-PDC cell line growth inhibition [POLQ];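 further: spheroids exposed to compounds for 7 days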
- CONDITIONS_USED: curve of first compound; second compound 0.0316 µM
# IC50 listing for each entry below
EXPERIMENTAL_ENDPOINT: IC50 (µM)

[[record]]
compound = "CC(=O)O[C@H]1C(=O)[C@@]2(C)[C@H]([C@H](OC(=O)c3ccccc3)[C@]3(O)C[C@H](OC(=O)[C@H](O)[C@@H](NC(=O)c4ccccc4)c4ccccc4)C(C)=C1C3(C)C)[C@]1(OC(C)=O)CO[C@@H]1C[C@@H]2O + Nc1ccc(C#CCN(C(=O)Cc2ncc(C(F)(F)F)cc2C(F)(F)F)c2ccc(F)cc2)nn1"
qualifier_operator = "<"
readout_value = 0.00949

[[record]]
compound = "CC(=O)O[C@H]1C(=O)[C@@]2(C)[C@H]([C@H](OC(=O)c3ccccc3)[C@]3(O)C[C@H](OC(=O)[C@H](O)[C@@H](NC(=O)c4ccccc4)c4ccccc4)C(C)=C1C3(C)C)[C@]1(OC(C)=O)CO[C@@H]1C[C@@H]2O + Cc1cccc(N(C)C(=O)C2C(O)CCN2c2nc(C)cc(C(F)(F)F)c2C#N)c1"
qualifier_operator = "<"
readout_value = 0.00949

[[record]]
compound = "CC1COCCN1c1cc(C2(O)CC3CCC(C2)O3)c2cnn(-c3ccn[nH]3)c2n1 (centres undefined) + Cc1cccc(N(C)C(=O)C2C(O)CCN2c2nc(C)cc(C(F)(F)F)c2C#N)c1"
qualifier_operator = "<"
readout_value = 0.0316

[[record]]
compound = "CC1COCCN1c1cc(C2(O)CC3CCC(C2)O3)c2cnn(-c3ccn[nH]3)c2n1 (centres undefined) + COC1C(OC(N)=O)C(O)C(Oc2ccc3c(O)c(NC(=O)c4ccc(O)c(CC=C(C)C)c4)c(=O)oc3c2C)OC1(C)C"
qualifier_operator = "<"
readout_value = 0.0316

[[record]]
compound = "CCc1cc2c(N3CCc4c(cc(Cn5ccnc5)cc4-c4cn(C)nc4C(F)(F)F)C3=O)ccnc2c(OC)n1 + COC1C(OC(N)=O)C(O)C(Oc2ccc3c(O)c(NC(=O)c4ccc(O)c(CC=C(C)C)c4)c(=O)oc3c2C)OC1(C)C"
qualifier_operator = "="
readout_value = 2.92

[[record]]
compound = "COc1cccc(OCCCN)c1-c1cc(Nc2cnc(C#N)cn2)n[nH]1 + COC1C(OC(N)=O)C(O)C(Oc2ccc3c(O)c(NC(=O)c4ccc(O)c(CC=C(C)C)c4)c(=O)oc3c2C)OC1(C)C"
qualifier_operator = "<"
readout_value = 0.00316

[[record]]
compound = "CCCS(=O)(=O)Nc1ccc(F)c(C(=O)c2c[nH]c3ncc(-c4ccc(Cl)cc4)cc23)c1F + COC1C(OC(N)=O)C(O)C(Oc2ccc3c(O)c(NC(=O)c4ccc(O)c(CC=C(C)C)c4)c(=O)oc3c2C)OC1(C)C"
qualifier_operator = "="
readout_value = 2.41

[[record]]
compound = "CCc1cc2c(N3CCc4c(cc(Cn5ccnc5)cc4-c4cn(C)nc4C(F)(F)F)C3=O)ccnc2c(OC)n1 + Cc1cccc(N(C)C(=O)C2C(O)CCN2c2nc(C)cc(C(F)(F)F)c2C#N)c1"
qualifier_operator = "="
readout_value = 3.28

[[record]]
compound = "O=C(c1cc(Cc2n[nH]c(=O)c3ccccc23)ccc1F)N1CCN(C(=O)C2CC2)CC1 + Cc1cccc(N(C)C(=O)C2C(O)CCN2c2nc(C)cc(C(F)(F)F)c2C#N)c1"
qualifier_operator = "="
readout_value = 4.01

